Field: abundance fitness. Provide a value for each of the variants that follow.
B1: Nuclear receptor subfamily 1 group D member 2, residues 103 to 171; numbered along this chain, Q14995 (parent)
chain: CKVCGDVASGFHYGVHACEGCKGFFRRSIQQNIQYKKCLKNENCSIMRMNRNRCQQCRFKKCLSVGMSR

- Variants of: B1
- Test method notes: abundance fitness (aPCA) (normalised: wild type 0, dead -1); higher = more abundant; growth selection in yeast, the domain comes from the species named
- Condition details: Homo sapiens

Q: Reported abundance fitness for S45I : what is it?
Result: -0.039

Q: Try the variant R69L
Result: 0.143

Q: Now consider G66D and answer again.
Result: -0.866

Q: Follow-up entry: S64K
Result: 0.236

Q: Next variant: K37P
Result: 0.27

Q: How about I46A ?
Result: -0.041

Q: Entry V65Y please
Result: -0.234

Q: Field entry: N41T
Result: -0.047

Q: Follow-up entry: I29Y
Result: -0.813

Q: Next entry: N43D
Result: -0.222

Q: Repeat for the following variant: R69C
Result: -0.013

Q: Next variant: C57K
Result: -0.687

Q: Also check F25W
Result: -0.332

Q: Repeat for the following variant: F59E
Result: -0.433

Q: Then R58Y ?
Result: -0.055

Q: Thanks! And E42N ?
Result: -0.004

Q: Proceed to Q55M
Result: -0.53

Q: // next record C62G
Result: -0.857

Q: Then what about the variant M67Y ?
Result: -0.558

Q: # iterate: Q55C
Result: -0.324

Q: Same thing, different variant: N32Y
Result: -0.776

Q: Follow-up entry: Q55I
Result: -0.611
